# Target or test system: Adrenergic receptor alpha-1 (Rattus norvegicus, UniProt P15823+P23944+P43140)
# Method summary: Alpha adrenergic receptor activity in rat aorta
# Type: tissue-based
Observed property: pA2

// below: answered molecules
>>> endpoint_result("O=C(CCNC1CCCCC1)NC(c1ccccc1)C1CCCCC1 (stereo not drawn)")
6.1
>>> endpoint_result("NCC(=O)NC(c1ccccc1)C1CCCCC1.O=C(O)/C=C\\C(=O)O (stereo not drawn)")
4.5
>>> endpoint_result("O=C(CNCC1COc2ccccc2O1)NC(c1ccccc1)C1CCCCC1.O=C(O)/C=C\\C(=O)O (stereo not drawn)")
6
>>> endpoint_result("O=C(Cc1c[nH]cn1)NC(c1ccccc1)C1CCCCC1.O=C(O)/C=C\\C(=O)O (stereo not drawn)")
5.3

I = C1CCC(C(CC2CCCCN2)C2CCCCC2)CC1 (stereo not drawn)
II = O=C(NCc1c[nH]cn1)C(c1ccccc1)C1CCCCC1.O=C(O)/C=C\C(=O)O (stereo not drawn)
Between the entries labeled I and II , whose measured pA2 is lower? Give the chosen item's label as your response. II
(II: 4.1, I: 6.7)

###

# Target or test system: Adrenergic receptor alpha-1 (Rattus norvegicus, UniProt P15823+P23944+P43140)
# Sequence (P15823 whole entry): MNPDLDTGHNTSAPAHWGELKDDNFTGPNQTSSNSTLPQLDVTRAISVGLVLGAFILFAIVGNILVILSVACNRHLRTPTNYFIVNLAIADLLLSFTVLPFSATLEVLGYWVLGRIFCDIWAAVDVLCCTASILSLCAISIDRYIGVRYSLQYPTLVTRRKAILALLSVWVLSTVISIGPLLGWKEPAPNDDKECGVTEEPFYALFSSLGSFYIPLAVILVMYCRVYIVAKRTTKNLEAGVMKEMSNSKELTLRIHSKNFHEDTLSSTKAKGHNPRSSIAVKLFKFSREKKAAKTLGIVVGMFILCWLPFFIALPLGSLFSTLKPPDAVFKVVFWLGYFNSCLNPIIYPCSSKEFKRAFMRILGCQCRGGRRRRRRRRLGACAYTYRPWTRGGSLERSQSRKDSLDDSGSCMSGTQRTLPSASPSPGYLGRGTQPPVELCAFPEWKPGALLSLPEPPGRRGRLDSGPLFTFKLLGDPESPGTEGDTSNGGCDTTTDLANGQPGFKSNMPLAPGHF
# Sequence (P23944 whole entry): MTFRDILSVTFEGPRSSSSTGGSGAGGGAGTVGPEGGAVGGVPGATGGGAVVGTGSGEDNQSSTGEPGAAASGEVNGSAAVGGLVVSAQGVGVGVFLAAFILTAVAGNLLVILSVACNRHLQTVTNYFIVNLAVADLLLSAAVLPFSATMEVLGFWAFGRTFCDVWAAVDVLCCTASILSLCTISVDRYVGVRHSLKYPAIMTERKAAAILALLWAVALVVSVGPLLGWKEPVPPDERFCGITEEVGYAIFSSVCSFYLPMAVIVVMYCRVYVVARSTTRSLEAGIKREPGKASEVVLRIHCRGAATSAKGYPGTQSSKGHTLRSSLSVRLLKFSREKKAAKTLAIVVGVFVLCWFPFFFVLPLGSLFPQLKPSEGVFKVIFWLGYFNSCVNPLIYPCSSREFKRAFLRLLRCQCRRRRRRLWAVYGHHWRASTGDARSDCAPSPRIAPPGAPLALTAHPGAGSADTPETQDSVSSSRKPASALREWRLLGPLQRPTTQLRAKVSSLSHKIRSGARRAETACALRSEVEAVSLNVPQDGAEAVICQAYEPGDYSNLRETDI
# Sequence (P43140 whole entry): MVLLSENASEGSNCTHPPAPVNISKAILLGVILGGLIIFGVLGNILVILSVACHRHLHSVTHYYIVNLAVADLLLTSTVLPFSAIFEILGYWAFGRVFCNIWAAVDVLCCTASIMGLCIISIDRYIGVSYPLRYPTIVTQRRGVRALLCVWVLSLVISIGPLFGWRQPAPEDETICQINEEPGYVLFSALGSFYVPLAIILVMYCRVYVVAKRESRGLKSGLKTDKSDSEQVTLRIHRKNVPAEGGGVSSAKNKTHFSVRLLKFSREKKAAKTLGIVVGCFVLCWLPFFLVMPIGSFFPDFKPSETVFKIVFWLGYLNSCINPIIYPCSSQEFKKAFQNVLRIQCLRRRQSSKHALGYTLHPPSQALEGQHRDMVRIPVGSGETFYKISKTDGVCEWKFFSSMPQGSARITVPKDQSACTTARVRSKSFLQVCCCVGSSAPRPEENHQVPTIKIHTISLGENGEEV
# Method summary: Alpha adrenergic receptor activity in rat aorta
# Assay type: tissue-based
Observed property: pA2

>>> endpoint_result("O=C(CC1=NCCN1)NC(c1ccccc1)C1CCCCC1.O=C(O)C(=O)O (configuration not stated)")
5.8
>>> endpoint_result("O=C(NCCc1ncc[nH]1)C(c1ccccc1)C1CCCCC1.O=C(O)C(=O)O (configuration not stated)")
5.4
>>> endpoint_result("O=C(Cc1ncc[nH]1)NC(c1ccccc1)C1CCCCC1.O=C(O)C(=O)O (configuration not stated)")
5.9
>>> endpoint_result("O=C(NCCNC1CCCCC1)C(c1ccccc1)C1CCCCC1 (configuration not stated)")
6.6
>>> endpoint_result("Cl.O=C(NC1CCCCN1)C(c1ccccc1)C1CCCCC1 (configuration not stated)")
5.5
>>> endpoint_result("CN(CC(=O)N(C)C(c1ccccc1)C1CCCCC1)C1CCCCC1.O=C(O)/C=C\\C(=O)O (configuration not stated)")
4.5
>>> endpoint_result("CCN(CC)CCNC(=O)C(c1ccccc1)C1CCCCC1.Cl (configuration not stated)")
5.4
>>> endpoint_result("CCN(CC)CC(=O)NC(c1ccccc1)C1CCCCC1 (configuration not stated)")
6
>>> endpoint_result("O=C(NCCN1CCOCC1)C(c1ccccc1)C1CCCCC1.O=C(O)C(=O)O (configuration not stated)")
4.5
>>> endpoint_result("CN(C(=O)CNC1CCCCC1)C(c1ccccc1)C1CCCCC1.O=C(O)/C=C\\C(=O)O (configuration not stated)")
5.3
>>> endpoint_result("O=C(CCC1=NCCN1)NC(c1ccccc1)C1CCCCC1.O=C(O)C(=O)O (configuration not stated)")
5.4
>>> endpoint_result("Cl.O=C(NCC1=NCCN1)C(c1ccccc1)C1CCCCC1 (configuration not stated)")
6.1
>>> endpoint_result("COc1ccc(CCN(C)CC(=O)NC(c2ccccc2)C2CCCCC2)cc1OC.O=C(O)C(=O)O (configuration not stated)")
6.5
>>> endpoint_result("O=C(CCc1ncc[nH]1)NC(c1ccccc1)C1CCCCC1.O=C(O)C(=O)O (configuration not stated)")
4.2
>>> endpoint_result("O=C(NCCC1=NCCN1)C(c1ccccc1)C1CCCCC1.O=C(O)C(=O)O (configuration not stated)")
5.7
>>> endpoint_result("COc1ccccc1N1CCN(CCC(=O)NC(c2ccccc2)C2CCCCC2)CC1.O=C(O)/C=C\\C(=O)O (configuration not stated)")
6
>>> endpoint_result("O=C(CNC1CCCCC1)NC(c1ccccc1)C1CCCCC1 (configuration not stated)")
6.5
>>> endpoint_result("O=C(NCCN1CCCCC1)C(c1ccccc1)C1CCCCC1.O=C(O)C(=O)O (configuration not stated)")
6
>>> endpoint_result("CN(CC(=O)NC(c1ccccc1)C1CCCCC1)CC1COc2ccccc2O1.O=C(O)C(=O)O (configuration not stated)")
6.15
>>> endpoint_result("CN(CC(=O)NC(c1ccccc1)C1CCCCC1)C1CCCCC1.O=C(O)/C=C\\C(=O)O (configuration not stated)")
6.7
>>> endpoint_result("O=C(NCc1ncc[nH]1)C(c1ccccc1)C1CCCCC1.O=C(O)C(=O)O (configuration not stated)")
5.2
>>> endpoint_result("O=C(CCCNC1CCCCC1)NC(c1ccccc1)C1CCCCC1 (configuration not stated)")
5.8
